Please find below IC50 measurements for 3',5'-cyclic-AMP phosphodiesterase 4D (Homo sapiens), combined from several publications.

molecule	target	unit.of.measurement	IC50
COc1ccc([C@@H]2CN(C(=O)[C@@H](O)CO)C[C@@]2(C)[C@@H](C)O)cc1OC1CN(c2cc(C)c(F)cn2)C1	3',5'-cyclic-AMP phosphodiesterase 4D (Homo sapiens)	nM	2.16
Nc1ncnc2c1nnn2C1CCCCC1(F)F (single isomer, unassigned)	3',5'-cyclic-AMP phosphodiesterase 4D (Homo sapiens)	nM	11900
COc1ccc([C@@H]2CN(C(=O)[C@@H](O)CO)C[C@@]2(C)[C@@H](C)O)cc1OC1CN(c2ncc(C)cc2F)C1	3',5'-cyclic-AMP phosphodiesterase 4D (Homo sapiens)	nM	1.12
COc1ccc([C@@H]2CN(C(=O)[C@@H](O)CO)C[C@@]2(C)[C@@H](C)O)cc1OC1CN(c2ccc(C3CC3)cn2)C1	3',5'-cyclic-AMP phosphodiesterase 4D (Homo sapiens)	nM	2.96
CCCCn1c(=O)c2nnc(C3(C)CC3)n2c2ncc(C)cc21	3',5'-cyclic-AMP phosphodiesterase 4D (Homo sapiens)	nM	6010
CSc1cccc(-c2nc(C3CCC(C(=O)O)CC3)cc3cccnc23)c1 (centres unmarked)	3',5'-cyclic-AMP phosphodiesterase 4D (Homo sapiens)	nM	9
Nc1ncnc2c1nnn2[C@@H]1CCCOC1	3',5'-cyclic-AMP phosphodiesterase 4D (Homo sapiens)	nM	3700
CNc1nc(-c2cccc(N3Cc4ccccc4C3)c2)c2cc(OC)c(OC)cc2n1	3',5'-cyclic-AMP phosphodiesterase 4D (Homo sapiens)	nM	2.5
